Every entry's value here was drawn from patent US9809573B2.

# reported pIC50; entries follow
System: pTau
Assay: pTau assay (method not described)
Assay type: cell-based
Conditions: read-out: pTau
pIC50: −log10 of the molar value.
measured.metric: pIC50

[[record]]
molecule = "CC(C)C(=O)Nc1cc(C(=O)Nc2cnccc2C(F)(F)c2ccccc2)ccn1"
quantitative_result = 5.00

[[record]]
molecule = "N#Cc1ccc(-c2ccncc2NC(=O)c2ccnc(NC(=O)C3CC3)c2)c(F)c1"
quantitative_result = 7.48

[[record]]
molecule = "CCC1(c2cc(Cl)ncc2NC(=O)c2ccnc(NC(=O)C3CCC(F)(F)C3)c2)OCCO1 (centres unmarked)"
quantitative_result = 8.08

[[record]]
molecule = "O=C(Nc1cnccc1-c1cc(Cl)ccc1F)c1ccnc(NC(=O)C2CC2)c1"
quantitative_result = 6.20

[[record]]
molecule = "O=C(Nc1cncc(-c2cc(F)ccc2F)c1)c1ccnc(NC(=O)C2CCC(F)(F)C2)c1 (centres unmarked)"
quantitative_result = 6.74

[[record]]
molecule = "O=C(Nc1cnccc1-c1ccc(Cl)cc1)c1ccnc(NC(=O)C2CC(Cl)C2)c1 (centres unmarked) [Example 225]"
quantitative_result = 7.37

[[record]]
molecule = "O=C(Nc1cncc(-c2ccccc2)c1)c1ccnc(NC(=O)C2CCC2)c1"
quantitative_result = 5.80

[[record]]
molecule = "C=C(c1ccccc1)c1ccncc1NC(=O)c1ccnc(NC(=O)C(C)C)c1"
quantitative_result = 6.29

